Target Entity: UniProt P0DTD1
Details: 50.0 µM
The following molecules are shown together with reported inhibition values.
Give your result in % as a bare value.

Reference set, count: 5
CC(Cl)C(=O)N1CCC(C(=O)N2CCCCC2)CC1 (stereo unspecified)	0
C=CC(=O)N(C(C)COc1cccc(F)c1)C(C(=O)NC(C)(C)C)c1cccnc1 (stereo unspecified)	0
Cc1noc(C)c1CS(=O)(=O)Cc1cccc(Cl)c1	0
C=CC(=O)N(c1ccc(C(C)(C)C)cc1)C(C(=O)NCCC(=O)OCC)c1cccnc1 (stereo unspecified)	43.7
CN(CC1COc2ccccc2O1)C(=O)c1cc(=O)[nH]c2cc(F)ccc12 (stereo unspecified)	0

Record O=C1CC(Oc2cccc(C(=O)NCc3cncnc3)c2)N1 (stereo unspecified) , field inhibition: 28.1
